I'd be grateful if you could share measured inhibition for these entries.
- assayed-target: Beta-secretase 1 (Homo sapiens, UniProt P56817)
- Sequence (P56817 whole entry): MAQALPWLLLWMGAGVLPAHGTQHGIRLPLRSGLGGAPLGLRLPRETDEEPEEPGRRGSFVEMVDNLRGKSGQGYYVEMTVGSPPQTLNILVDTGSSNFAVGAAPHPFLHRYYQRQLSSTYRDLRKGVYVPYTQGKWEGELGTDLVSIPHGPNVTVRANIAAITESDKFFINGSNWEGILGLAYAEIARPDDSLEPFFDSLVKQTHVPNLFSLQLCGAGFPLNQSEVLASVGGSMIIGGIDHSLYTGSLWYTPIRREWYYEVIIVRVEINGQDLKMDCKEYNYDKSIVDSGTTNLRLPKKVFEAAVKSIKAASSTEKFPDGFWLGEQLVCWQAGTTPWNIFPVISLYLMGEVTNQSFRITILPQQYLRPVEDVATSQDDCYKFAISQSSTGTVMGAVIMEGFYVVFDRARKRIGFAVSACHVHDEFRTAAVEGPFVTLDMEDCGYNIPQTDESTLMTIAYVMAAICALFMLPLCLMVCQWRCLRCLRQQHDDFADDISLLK
- experiment-notes: Inhibition of recombinant human BACE-1 using SEVNLDAEFK as substrate at 10 uM after 90 mins by FRET assay
Give bare numbers, in %.

Below are worked cases with known answers.
# smiles-record, inhibition [%]
measured = [
    ("CC1=C(C(=O)Nc2nc3ccccc3s2)C(c2ccccc2)C(C(=O)Nc2nc3ccccc3s2)=C(C)N1", 44.9),
    ("CCOc1ccc2nc(NC(=O)C3=C(C)NC(C)=C(C(=O)Nc4nc5ccc(OCC)cc5s4)C3c3cccc([N+](=O)[O-])c3)sc2c1", 49.1),
]

Could I get inhibition for every one of these entries?
1. CC1=C(C(=O)Nc2nccs2)C(c2ccc([N+](=O)[O-])cc2)C(C(=O)Nc2nccs2)=C(C)N1
2. CC1=C(C(=O)Nc2cc(C)on2)C(c2ccccc2[N+](=O)[O-])C(C(=O)Nc2cc(C)on2)=C(C)N1
3. CC1=C(C(=O)Nc2nc(C)cs2)C(c2cccc([N+](=O)[O-])c2)C(C(=O)Nc2nc(C)cs2)=C(C)N1
4. CC1=C(C(=O)Nc2cc(C)on2)C(c2ccc([N+](=O)[O-])cc2)C(C(=O)Nc2cc(C)on2)=C(C)N1

Key:
1: 28.1; 2: 12.7; 3: 34.8; 4: 23.5

Exercise: Can you look up inhibition on Beta-secretase 1 (Homo sapiens, UniProt P56817) for `CC1=C(C(=O)Nc2nc3ccccc3s2)C(c2ccc([N+](=O)[O-])cc2)C(C(=O)Nc2nc3ccccc3s2)=C(C)N1` ?
Key: 49.8
